Measured values drawn from PubChem BioAssay (NCI) for this set.

# System: MOLT-4 leukemia
# experimental_protocol: NCI tumour cell line growth inhibition, 48 h; in the data active = GI50 below about 0.43 µM; inactive = the rest
Outcome codes: active, inactive

>>> print(df.to_string())
                                   molecule  group_label
0  O=C1CCC(N2C(=O)c3cccc(NCCOCCOCCNC(=O)c4cc5c(o4)C(=O)c4ccccc4C5=O)c3C2=O)C(=O)N1 (centres undefined)     inactive
1  COc1cccc(NC(=O)c2ccc(NC3=C(Cl)C(=O)N(Cc4ccccc4)C3=O)cc2)c1     inactive
2  O=C(Nc1ccc(-n2ccc3c(NC(=O)c4ccccc4)nccc32)cc1)c1ccc(N2CCOCC2)c(C(F)(F)F)c1       active
3  Cc1ccc(-n2c3c(c4c(CN)c(O)ccc42)CCc2ccccc2C3=O)cc1     inactive

---

We begin with a simple list: items and their reported TGI.
# Test system: NCI/ADR-RES ovarian
# experimental_protocol: NCI tumour cell line growth inhibition, 48 h
property_measured: TGI (µM)

                                    compound   u  modifier  number
 0  CCCCCCCCCCCCC(NC(C)=O)(C(=O)OCC)C(=O)OCC  µM         =    23.7
 1  COc1ccc2c(c1)OC1c3ccccc3OCC21 (configuration not stated)  µM         >     100
 2      COc1ccc2[nH]c3c(C)c4ncccc4c(C)c3c2c1  µM         >      10
 3  N#CC(C(=O)O)C(c1c(Cl)cccc1Cl)C(C#N)C(=O)O (configuration not stated)  µM         >     100
 4  CCOC1=NC(C(F)(F)F)(C(F)(F)F)N=C(N2CCCCC2)O1  µM         >     100
 5  C[C@@H]1OC(=O)NN=C1c1ccc(-c2ccc(F)cc2)c(C(F)(F)F)c1  µM         =    21.2
 6  CC1(C)OC2COC(c3[nH]nc4c(=O)[nH]c(=O)[nH]c34)C2O1 (configuration not stated)  µM         >     100
 7          COC(=O)/C=C/c1cnc2c(c1)oc(=O)n2C  µM         >     100
 8  COc1ccc(-c2c3c(nc4[nH]c(=S)[nH]c(=S)c24)CCCC3)cc1OC  µM         =    66.1
 9  S=C1SCN(C2CCCCCCCCCCC2)CN1C1CCCCCCCCCCC1  µM         >     100
10  COc1cccc(NC(=O)c2ccc(NC3=C(Cl)C(=O)N(Cc4ccccc4)C3=O)cc2)c1  µM         =    29.8
11  O=C1CSC(c2cccc(Oc3ccccc3)c2)N1c1cccc(Cl)c1Cl (configuration not stated)  µM         =    59.9
12  COC(=O)C1(Cc2ccc(C)cc2)Cc2c(C)cccc2C1=O (configuration not stated)  µM         =    80.9
13  CC(C)(C)C(=O)CC(=O)C(F)(F)C(F)(F)C(F)(F)F.[Ag]  µM         =    48.6
14  O=C(NNC(=O)c1c(Cl)c(Cl)c(Cl)c(Cl)c1-c1nc2ccccc2[nH]1)c1ccc(Cl)cc1  µM         >     100
15  Fc1cc2nc3n(c2cc1F)C(c1c(Cl)cccc1Cl)SC3 (configuration not stated)  µM         =    37.7
16  COc1ccccc1N1CCN(CCCOc2ccc(C(=O)/C=C3/C(=O)Nc4ccccc43)cc2)CC1  µM         =    40.9
17  C=COC(=O)N1C2CCCC(Cl)(C(C)=O)C1CC2 (configuration not stated)  µM         >     100
18  CCOC(=O)C(=O)C(/C(=N/N(C)C)C(=O)Nc1ccc(C)cc1C)c1nc2ccccc2[nH]c1=O (configuration not stated)  µM         >     100
19  CN(C)c1c(C2CC(O)C(CO)O2)c(=O)c1=O (configuration not stated)  µM         >     100
20  COc1cc2c3c(c1OC)C(=O)C(=O)C1=C3N(CCC1)CC2  µM         >     100
21  Nc1nc(Cc2ccccc2)nc(Cc2ccccc2)c1-c1ccccc1  µM         =      55
